pIC50: −log10 of the molar value.
Below are pIC50 values recorded for 3CLpro (Severe acute respiratory syndrome coronavirus 2).

Completed entries (count: 4):
Task: Fill in: pIC50 of CC(C)C[C@H](NC(=O)c1cc2ccccc2o1)C(=O)CN(C[C@@H]1CCNC1=O)C(=O)CCl [Example 14] is ___
Result: > 5.70

Task: Form field: reported pIC50 of COc1cccc2[nH]c(C(=O)N[C@@H](CC(C)C)C(=O)CN(C[C@@H]3CCNC3=O)C(=O)CF)cc12 [Example 8]
Result: < 4.70

Task: Look up pIC50: CC(C)C[C@H](NC(=O)c1cccs1)C(=O)CN(C[C@@H]1CCNC1=O)C(=O)CCl [Example 13]
Result: > 5.70

Task: Data request, read-out pIC50, for COc1cccc2[nH]c(C(=O)N[C@@H](CC(C)C)C(=O)CN(C[C@@H]3CCNC3=O)C(=O)SCc3ccccc3)cc12 [Example 18]
Result: < 4.70

Would you be so kind as to report pIC50 for each listed record?
1. CC(C)C[C@H](NC(=O)OCc1ccccc1)C(=O)CN(C[C@@H]1CCNC1=O)C(=O)CCl [Example 20]
2. C=CC(=O)N(CC(=O)[C@H](CC(C)C)NC(=O)c1cc2c(OC)cccc2[nH]1)C[C@@H]1CCNC1=O [Example 4]
3. CC(C)C[C@H](NC(=O)c1cc(Cl)c(Cl)s1)C(=O)CN(C[C@@H]1CCNC1=O)C(=O)CCl [Example 11]
4. C#CC(=O)N(CC(=O)[C@H](CC(C)C)NC(=O)c1cc2c(OC)cccc2[nH]1)C[C@@H]1CCNC1=O [Example 6]

Result:
1: > 5.70; 2: < 4.70; 3: > 5.70; 4: 4.70 to 5.70

Hi there! I need pIC50 for each item below, if you can.
1. CC(C)C[C@H](NC(=O)OC(C)(C)C)C(=O)CN(C[C@@H]1CCNC1=O)C(=O)SCc1ccccc1 [Example 16]
2. CC(C)C[C@@H](NC(=O)OCc1ccccc1)C(=O)CN(C[C@@H]1CCNC1=O)C(=O)CCl [Example 21]

Result:
["< 4.70", "4.70 to 5.70"]

---

For each of the compounds below, state its IC50.
# target.under.test: UniProt:P0DTD1

Here is how some compounds turned out for IC50.
Task: Given CC(C)C[C@H](NC(=O)OC(C)(C)C)C(=O)CN(C[C@@H]1CCNC1=O)C(=O)CCl [Example 1] , state its recorded IC50.
Result: < 2000 nM

Task: Requested field: IC50. Item: CC(C)C[C@H](NC(=O)c1cc2c(F)cccc2o1)C(=O)CN(C[C@@H]1CCNC1=O)C(=O)CCl [Example 15]
Result: < 2000 nM

Task: Would you kindly share the measured IC50 for COc1cccc2[nH]c(C(=O)N[C@@H](CC(C)C)C(=O)CN(C[C@@H]3CCNC3=O)C(=O)CCl)cc12 [Example 2] ?
Result: < 2000 nM

Task: What value of IC50 has been recorded for this entry: CC(=O)OCC(=O)N(CC(=O)[C@H](CC(C)C)NC(=O)OC(C)(C)C)C[C@@H]1CCNC1=O [Example 17]
Result: > 20000 nM

Task: Can you share its IC50? I mean this compound: COc1cccc2[nH]c(C(=O)N[C@@H](CC(C)C)C(=O)CN(C[C@@H]3CCNC3=O)S(=O)(=O)CCl)cc12 [Example 10]
Result: > 20000 nM

Task: What does the record list as IC50 for CC(C)C[C@H](NC(=O)c1cc2c(F)cccc2s1)C(=O)CN(C[C@@H]1CCNC1=O)C(=O)CCl [Example 12] ?
Result: < 2000 nM

Switching to the query record.
Task: So what's the measured IC50 for this one? C=CC(=O)N(CC(=O)[C@H](CC(C)C)NC(=O)OC(C)(C)C)C[C@@H]1CCNC1=O [Example 3]
Result: > 20000 nM
